- Protocol: Oral bioavailability in rhesus monkey at 2 mg/kg administered through gavage
- Type: ADME, organism-based, Macaca mulatta
- Experimental Parameters: in vivo
Recorded Metric: bioavailability (%)
One number for each entry, in %.

So, Cc1nnc2n1-c1ccc(-c3cncc([C@](C)(O)C(F)(F)F)c3)cc1CC2 ? Its bioavailability was 100

====

- Assay System: Cytochrome P450 11B1, mitochondrial (Homo sapiens, UniProt P15538)
- Sequence (P15538 whole entry): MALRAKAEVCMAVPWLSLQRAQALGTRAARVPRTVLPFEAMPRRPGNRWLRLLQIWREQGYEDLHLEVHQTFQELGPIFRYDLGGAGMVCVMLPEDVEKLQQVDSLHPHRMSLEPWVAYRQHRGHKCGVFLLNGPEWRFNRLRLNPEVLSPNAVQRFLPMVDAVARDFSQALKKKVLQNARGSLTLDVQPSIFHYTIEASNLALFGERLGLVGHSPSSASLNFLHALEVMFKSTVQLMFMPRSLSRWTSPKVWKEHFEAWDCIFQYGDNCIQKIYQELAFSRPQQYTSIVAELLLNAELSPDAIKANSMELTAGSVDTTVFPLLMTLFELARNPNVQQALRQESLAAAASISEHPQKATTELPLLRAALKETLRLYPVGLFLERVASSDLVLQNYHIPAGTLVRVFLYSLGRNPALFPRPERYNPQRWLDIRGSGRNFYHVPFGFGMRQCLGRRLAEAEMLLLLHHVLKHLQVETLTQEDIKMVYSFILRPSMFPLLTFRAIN
- Protocol: Inhibition of human CYP11B1 expressed in V79 cells assessed as cortisol level after 3 hrs by HTRF assay in presence of 250 nM 11-deoxycortisol
So I've got a bunch of compounds here, and I need their IC50 values.

c1ccc(-c2nnc3n2-c2ccc(-c4cccnc4)cc2CC3)cc1	1.36 µM
Cc1nnc2n1-c1ccc(-c3cccnc3)cc1CC2	> 10 µM
Cc1nnc2n1-c1ccc(-c3cncc(C(C)(C)O)c3)cc1CC2	> 8.33 µM
Cc1nnc2n1-c1ccc(-c3cncc(F)c3)cc1CC2	> 10 µM
FC(F)(F)c1nnc2n1-c1ccc(-c3cccnc3)cc1CC2	> 8.33 µM
c1cncc(-c2ccc3c(c2)CCc2nncn2-3)c1	> 10 µM
COC(C)(C)c1cncc(-c2ccc3c(c2)CCc2nnc(C)n2-3)c1	0.219 µM
CC(C)(O)c1cncc(-c2ccc3c(c2)CCc2nnc(C(F)(F)F)n2-3)c1	1.47 µM
Cc1nnc2n1-c1ccc(-c3cncc(C(=O)N(C)C)c3)cc1CC2	> 8.33 µM
Cc1nnc2n1-c1ccc(-c3cncc(C(F)(F)F)c3)cc1CC2	> 10 µM

Batch of 7 compounds: report IC50 for each.
1. Cc1nnc2n1-c1ccc(-c3cncc([C@@](C)(O)C(F)(F)F)c3)cc1CC2
2. Cc1nnc2n1-c1ccc(-c3cncc([C@](C)(O)C(F)(F)F)c3)cc1CC2
3. Cc1nnc2n1-c1ccc(-c3cncc(S(C)(=O)=O)c3)cc1CC2
4. CNC(=O)c1cncc(-c2ccc3c(c2)CCc2nnc(C)n2-3)c1
5. C[C@](O)(c1cncc(-c2ccc3c(c2)CCc2nnc(C(F)(F)F)n2-3)c1)C(F)(F)F
6. Cc1nnc2n1-c1ccc(-c3cncc(S(=O)(=O)c4ccccc4)c3)cc1CC2
7. COC(=O)C(C)(C)c1cncc(-c2ccc3c(c2)CCc2nnc(C)n2-3)c1

Output:
1: > 8.33 µM; 2: 4.4 µM; 3: > 8.33 µM; 4: > 8.33 µM; 5: 0.887 µM; 6: 1.5 µM; 7: 0.317 µM

Please state IC50 for every compound in the list that follows.
1. C[C@@](O)(c1cncc(-c2ccc3c(c2)CCc2nnc(C(F)(F)F)n2-3)c1)C(F)(F)F
2. COC(=O)c1cncc(-c2ccc3c(c2)CCc2nnc(C)n2-3)c1
3. c1cncc(-c2ccc3c(c2)CCc2nnc(C4CC4)n2-3)c1
4. c1cncc(-c2ccc3c(c2)CCc2nnc(C4CCCCC4)n2-3)c1

Output:
> 8.33 µM
2.2 µM
> 10 µM
> 8.33 µM

====

- Protocol: Plasma protein binding in Sprague-Dawley rat
- Assay type: ADME, cell-free
Recorded Metric: fraction unbound
Answers are plain numbers.

Value of fraction unbound reported for the compound CC(C)(O)c1cncc(-c2ccc3c(c2)CCc2nnc(C(F)(F)F)n2-3)c1 is 0.997

====

- Protocol: Oral bioavailability in Sprague-Dawley rat at 2 mg/kg administered through gavage
- Assay type: ADME, organism-based
- Experimental Parameters: in vivo
Recorded Metric: bioavailability (%)
Give bare numbers, in %.

Use these answered entries as a reference point.
CC(C)(O)c1cncc(-c2ccc3c(c2)CCc2nnc(C(F)(F)F)n2-3)c1	83
Cc1nnc2n1-c1ccc(-c3cncc(C(C)(C)O)c3)cc1CC2	19
Cc1nnc2n1-c1ccc(-c3cccnc3)cc1CC2	6

I would be grateful if you could provide bioavailability for each of the following entries.
1. Cc1nnc2n1-c1ccc(-c3cncc([C@](C)(O)C(F)(F)F)c3)cc1CC2
2. Cc1nnc2n1-c1ccc(-c3cncc4ccccc34)cc1CC2
3. COC(C)(C)c1cncc(-c2ccc3c(c2)CCc2nnc(C)n2-3)c1

Output:
1. 87
2. 75
3. 10

====

- Protocol: Lipophilicity, log D of the compound by HPLC
- Format: physicochemical
Recorded Metric: logD
Answers are plain numbers.

Worked cases, logD given:
Cc1nnc2n1-c1ccc(-c3cncc([C@@](C)(O)C(F)(F)F)c3)cc1CC2	1.2
CC(C)(O)c1cncc(-c2ccc3c(c2)CCc2nnc(C(F)(F)F)n2-3)c1	1.5
Cc1nnc2n1-c1ccc(-c3cncc([C@](C)(O)C(F)(F)F)c3)cc1CC2	1.2
C[C@@](O)(c1cncc(-c2ccc3c(c2)CCc2nnc(C(F)(F)F)n2-3)c1)C(F)(F)F	2.2
Cc1nnc2n1-c1ccc(-c3cncc(C(C)(C)O)c3)cc1CC2	0.6

Please examine the following record next.
For record C[C@](O)(c1cncc(-c2ccc3c(c2)CCc2nnc(C(F)(F)F)n2-3)c1)C(F)(F)F the listed logD is 2.2

====

- Assay System: UniProt:P19099
- Sequence (P19099 whole entry): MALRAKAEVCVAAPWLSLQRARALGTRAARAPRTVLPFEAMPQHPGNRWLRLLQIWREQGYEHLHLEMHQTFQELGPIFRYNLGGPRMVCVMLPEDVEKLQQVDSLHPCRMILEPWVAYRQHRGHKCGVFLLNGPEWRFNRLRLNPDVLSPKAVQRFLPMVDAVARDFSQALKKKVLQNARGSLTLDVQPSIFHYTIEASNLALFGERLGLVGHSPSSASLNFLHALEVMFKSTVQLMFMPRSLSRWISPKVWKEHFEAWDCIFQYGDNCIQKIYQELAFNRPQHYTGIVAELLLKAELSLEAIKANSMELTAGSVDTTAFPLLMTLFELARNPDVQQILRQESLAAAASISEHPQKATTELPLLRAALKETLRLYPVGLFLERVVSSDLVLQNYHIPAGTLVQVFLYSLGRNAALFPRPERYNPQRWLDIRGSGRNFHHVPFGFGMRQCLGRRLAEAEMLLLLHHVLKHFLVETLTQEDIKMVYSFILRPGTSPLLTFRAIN
- Protocol: Inhibition of human CYP11B2 expressed in V79 cells assessed as aldosterone level after 3 hrs by HTRF assay in presence of 125 nM 11-deoxycorticosterone
Recorded Metric: log10 of IC50 (log10 of the value in nM)
Please interpret these as log10 of IC50 where IC50 is in nM.

Answered examples (4):
Cc1nnc2n1-c1ccc(-c3cncc(C(C)(C)O)c3)cc1CC2	2.45
c1cncc(-c2ccc3c(c2)CCc2nnc(C4CCCCC4)n2-3)c1	3.38
c1cncc(-c2ccc3c(c2)CCc2nnc(C4CC4)n2-3)c1	2.69
CC(C)(O)c1cncc(-c2ccc3c(c2)CCc2nnc(C(F)(F)F)n2-3)c1	2.72

Can you give me log10 of IC50 for all of these, one by one?
1. COC(=O)c1cncc(-c2ccc3c(c2)CCc2nnc(C)n2-3)c1
2. C[C@@](O)(c1cncc(-c2ccc3c(c2)CCc2nnc(C(F)(F)F)n2-3)c1)C(F)(F)F
3. c1cncc(-c2ccc3c(c2)CCc2nncn2-3)c1
4. Cc1nnc2n1-c1ccc(-c3cncc(S(=O)(=O)c4ccccc4)c3)cc1CC2
5. COC(C)(C)c1cncc(-c2ccc3c(c2)CCc2nnc(C)n2-3)c1

Output:
[1.76, 2.68, 2.48, 1.60, 1.28]

====

- Protocol: Intrinsic clearance in rhesus monkey liver microsomes by LC/MS method
- Format: ADME, Macaca mulatta
Recorded Metric: CLint scaled

For Cc1nnc2n1-c1ccc(-c3cncc([C@](C)(O)C(F)(F)F)c3)cc1CC2 the molecule record lists CLint scaled as < 20 mL/min/kg

====

- Test system: Rattus norvegicus
- Protocol: Dose normalized AUC in Sprague-Dawley rat at 2 mg/kg, po administered through gavage
- Assay type: ADME, organism-based
- Experimental Parameters: in vivo
Recorded Metric: AUC/dose (µM·kg·h/mg)
Give bare numbers, in µM·kg·h/mg.

Completed entries (count: 5):
Cc1nnc2n1-c1ccc(-c3cncc4ccccc34)cc1CC2	0.27
CC(C)(O)c1cncc(-c2ccc3c(c2)CCc2nnc(C(F)(F)F)n2-3)c1	3.87
Cc1nnc2n1-c1ccc(-c3cncc([C@](C)(O)C(F)(F)F)c3)cc1CC2	1.88
Cc1nnc2n1-c1ccc(-c3cncc(C(C)(C)O)c3)cc1CC2	0.19
Cc1nnc2n1-c1ccc(-c3cccnc3)cc1CC2	0.1

// next item, AUC/dose requested
The value of AUC/dose measured for the molecule COC(C)(C)c1cncc(-c2ccc3c(c2)CCc2nnc(C)n2-3)c1 turned out to be 0.03

====

- Protocol: Plasma clearance in Sprague-Dawley rat at 2 mg/kg, po administered through gavage by LC/MS/MS method
- Format: ADME, organism-based
Please mark Met if the recorded CL/F is equal to or greater than 40 mL/min/kg, and Not met if it falls below.

CC(C)(O)c1cncc(-c2ccc3c(c2)CCc2nnc(C(F)(F)F)n2-3)c1	Not met

Input: Is reported CL/F greater than or equal to 40 mL/min/kg here: COC(C)(C)c1cncc(-c2ccc3c(c2)CCc2nnc(C)n2-3)c1
Output: Met

Input: Kindly determine if CL/F recorded for Cc1nnc2n1-c1ccc(-c3cncc4ccccc34)cc1CC2 is above or exactly 40 mL/min/kg.
Output: Met

Input: Evaluate Cc1nnc2n1-c1ccc(-c3cncc([C@](C)(O)C(F)(F)F)c3)cc1CC2 : CL/F at minimum 40 mL/min/kg?
Output: Not met

Input: Given the entry Cc1nnc2n1-c1ccc(-c3cccnc3)cc1CC2 , answer whether its CL/F meets or surpasses 40 mL/min/kg.
Output: Not met

Input: API: above_or_equal(metric=CL/F, cutoff=40 mL/min/kg) for item Cc1nnc2n1-c1ccc(-c3cncc(C(C)(C)O)c3)cc1CC2
Output: Met
